Data credit: patent US20250289789A1

Tested on: Phospho-Rb Ser807/811 in OVCAR3 cells
Assay: OVCAR3 Phospho-Rb Ser807/811 HTRF assay
Type: cell-based
Details: Homo sapiens, OVCAR-3, 1 h, OVCAR3 cells, Phospho-Rb Ser807/811 HTRF, 1 hour incubation; read-out: pRb-OVCAR3 IC50
measurement_kind: IC50 (nM)

- Cc1cc(O)c(C=O)c(O[C@@H](C)C(=O)Nc2cc([C@H]3CC[C@@H](OC(=O)NC(C)C)C3)[nH]n2)c1: 326
- COc1cc(O)c(C=O)c(OCC(=O)Nc2cc([C@H]3CC[C@@H](OC(=O)N4C[C@H](F)[C@@H]4C)C3)[nH]n2)c1: 20.9
- CC(C)NC(=O)O[C@@H]1CC[C@H](c2cc(Nc3nccc4c(C=O)c(O)ccc34)n[nH]2)C1: 170
- COc1cccc(OCC(=O)Nc2cc([C@H]3CC[C@@H](OC(=O)NC4(C)CCC4)C3)[nH]n2)c1C=O: 65.8
- CCCNC(=O)O[C@@H]1CC[C@H](c2cc(NC(=O)COc3cccc(O)c3C=O)n[nH]2)C1: 119
- COc1cc(O)c(C=O)c(OCC(=O)Nc2cc([C@H]3CC[C@@H](OC(=O)NCC4COC4)C3)[nH]n2)c1: 115
- CCN(NC)C(=O)O[C@@H]1CC[C@H](c2cc(NC(=O)COc3cc(OC)cc(O)c3C=O)n[nH]2)C1: 35.7
- COc1cc(O)c(C=O)c(OCC(=O)Nc2cc([C@H]3CC[C@@H](OC(=O)N[C@H]4C[C@@H](C)C4)C3)[nH]n2)c1: 148
- CC(=O)Nc1ccc(C(=O)Nc2cc([C@H]3CC[C@@H](OC(=O)NC(C)C)C3)[nH]n2)cc1C=O: 542
- O=Cc1c(O)cc(OC(F)F)cc1OCC(=O)Nc1cc([C@H]2CC[C@@H](OC(=O)N3C4COCC3C4)C2)[nH]n1: 105
- Cc1cc(C(=O)Nc2cc([C@H]3CC[C@@H](OC(=O)NC(C)C)C3)[nH]n2)cc(C=O)c1O: 112
- CC(C)NC(=O)O[C@@H]1CC[C@H](c2cc(NC(=O)Cc3ccc(C=O)c(O)c3)n[nH]2)C1: 68.8
- CC(C)NC(=O)O[C@@H]1CC[C@H](c2cc(NC(=O)[C@@H]3Cc4ccc(O)c(C=O)c4C3)n[nH]2)C1 [Compound 26]: 94.5
- COc1cc(O)c(C=O)c(OCC(=O)Nc2cc([C@H]3CC[C@@H](OC(=O)N[C@H]4C[C@@H](C#N)C4)C3)[nH]n2)c1: 80.6
